TEST_SYSTEM: Peptidyl-prolyl cis-trans isomerase NIMA-interacting 1 (Homo sapiens)
ASSAY_SUMMARY: qHTS Validation Assay to Find Inhibitors of Pin1 (AID 504536)
TEST_SETTINGS: Pin1 fluorescence polarization peptide binding assay; series mostly up to 57.5 µM
Records with an inconclusive call do not appear. Active and inactive are the calls of the source. Calls come from the whole dose curve; as a rule, active = well fitted inhibition curve with a large enough effect in the polarisation, with a control signal flat (not every such curve was filed as active); inconclusive = small, poorly fitted or top-dose-only effect, or effect the other way; inactive = flat fitted curve, though single readings scatter; the % refers to the polarisation.
METRIC: outcome

A selection of reference data follows.
O=C(Nc1ccc([N+](=O)[O-])cc1Cl)c1cc(Cl)ccc1O: inactive
CC(CCc1ccc(O)cc1)NCCc1ccc(O)c(O)c1 (stereo unspecified): inactive
Nc1nnc(-c2cccc(Cl)c2Cl)c(N)n1: inactive
CCC1(C)CC(=O)NC1=O (stereo unspecified): inactive
CC(C)(Oc1ccc(C2CC2(Cl)Cl)cc1)C(=O)O (stereo unspecified): inactive
CC(C)Cc1ccc(C(C)C(=O)O)cc1 (stereo unspecified): inactive
CC(C)NCC(O)c1ccc(O)c(O)c1 (stereo unspecified): inactive
CNCCCC12CCC(c3ccccc31)c1ccccc12: inactive
NC12CC3CC(CC(C3)C1)C2: inactive
COc1ccccc1N1CCN(CC(O)COc2cccc3ccccc23)CC1 (stereo unspecified): inactive

Moving on to the next compound.
Task: Report outcome for COc1cc2nc(N3CCN(C(=O)c4ccco4)CC3)nc(N)c2cc1OC tested on Peptidyl-prolyl cis-trans isomerase NIMA-interacting 1 (Homo sapiens).
Result: inactive
